- TARGET_DESC: ACK1 (Homo sapiens)
- Sequence (Q07912 whole entry): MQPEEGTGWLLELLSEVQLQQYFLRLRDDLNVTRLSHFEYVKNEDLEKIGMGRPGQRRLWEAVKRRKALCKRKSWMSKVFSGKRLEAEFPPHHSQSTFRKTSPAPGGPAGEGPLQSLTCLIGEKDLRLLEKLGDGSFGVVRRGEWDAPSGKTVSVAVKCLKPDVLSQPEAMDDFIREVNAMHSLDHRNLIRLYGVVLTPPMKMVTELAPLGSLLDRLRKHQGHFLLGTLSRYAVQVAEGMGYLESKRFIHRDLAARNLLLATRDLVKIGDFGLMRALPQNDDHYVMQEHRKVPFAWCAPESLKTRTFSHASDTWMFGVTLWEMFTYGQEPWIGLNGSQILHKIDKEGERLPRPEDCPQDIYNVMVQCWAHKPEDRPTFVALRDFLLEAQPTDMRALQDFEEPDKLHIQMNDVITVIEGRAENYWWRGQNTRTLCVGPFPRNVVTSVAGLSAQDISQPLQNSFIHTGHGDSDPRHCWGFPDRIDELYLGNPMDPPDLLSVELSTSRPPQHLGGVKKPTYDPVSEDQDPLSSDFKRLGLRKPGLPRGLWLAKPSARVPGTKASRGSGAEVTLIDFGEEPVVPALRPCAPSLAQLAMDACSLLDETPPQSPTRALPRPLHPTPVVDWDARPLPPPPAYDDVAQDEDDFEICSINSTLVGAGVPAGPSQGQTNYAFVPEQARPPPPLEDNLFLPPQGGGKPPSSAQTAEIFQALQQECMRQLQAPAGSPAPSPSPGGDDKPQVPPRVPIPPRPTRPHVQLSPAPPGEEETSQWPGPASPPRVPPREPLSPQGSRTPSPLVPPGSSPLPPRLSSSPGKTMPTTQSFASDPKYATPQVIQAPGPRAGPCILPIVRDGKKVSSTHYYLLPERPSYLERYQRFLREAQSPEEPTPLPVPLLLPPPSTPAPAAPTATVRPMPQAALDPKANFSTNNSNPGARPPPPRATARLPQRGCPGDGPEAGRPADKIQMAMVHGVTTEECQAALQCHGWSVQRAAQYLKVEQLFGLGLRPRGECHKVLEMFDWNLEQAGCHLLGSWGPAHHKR
OBSERVABLE: IC50 (nM)

>  <COMPOUND>
O=C(O)CCC(=O)N1CCN(c2ccc(Nc3ncc(C(=O)Nc4c(F)cccc4Cl)c(NCC4CCCO4)n3)cc2)CC1 (stereo not shown)

>  <NUMERIC_VALUE>
28

$$$$
